Assay: Hematology assays in cynomolgus monkeys (Example 45)
Format: in vivo
Settings: day 50; escalating dose regimen
testReadout: RBC count (µL⁻¹)
One number for each entry, in µL⁻¹.

Below, 2 substances whose answers are already recorded.
| substance | unitLabel | RBC count |
| --- | --- | --- |
| ISIS 416838: MOE gapmer, nucleobases 1018 to 1042 of SEQ ID NO: 1 (Table 6) (antisense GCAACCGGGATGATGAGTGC; MOE gapmer, wing and gap sizes not given here) | µL⁻¹ | 5.5e+06 |
| ISIS 416858: MOE gapmer, nucleobases 1275 to 1318 of SEQ ID NO: 1 (Table 8) (antisense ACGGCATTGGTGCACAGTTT; MOE gapmer, wing and gap sizes not given here) | µL⁻¹ | 5.5e+06 |

Alright, here's another substance for you.
Prompt line: Find the recorded RBC count belonging to ISIS 416850: MOE gapmer, nucleobases 1275 to 1318 of SEQ ID NO: 1 (Table 8) (antisense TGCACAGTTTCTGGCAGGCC; MOE gapmer, wing and gap sizes not given here) and report it.
Response line: 5.2e+06

Values compiled from patent US20230263822A1.
